Origin of measurements: patent US10551389B2

Listing of entries alongside the reported inhibition at 50 µM.
Target: Mcl-1 (Homo sapiens, UniProt Q07820)
Sequence (Q07820 whole entry, species assumed): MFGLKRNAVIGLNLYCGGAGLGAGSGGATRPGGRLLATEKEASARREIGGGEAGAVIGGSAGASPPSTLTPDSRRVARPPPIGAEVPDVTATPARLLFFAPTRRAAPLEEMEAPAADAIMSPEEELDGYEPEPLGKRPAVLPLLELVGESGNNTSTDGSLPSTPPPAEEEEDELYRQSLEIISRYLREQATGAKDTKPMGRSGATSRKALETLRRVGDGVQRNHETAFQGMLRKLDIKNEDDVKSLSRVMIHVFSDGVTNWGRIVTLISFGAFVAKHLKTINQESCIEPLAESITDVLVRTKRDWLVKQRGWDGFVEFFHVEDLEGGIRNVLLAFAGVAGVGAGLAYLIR
Assay: Inhibition of Mcl-1 (disruption of Mcl-1/Bim interaction)
Type: binding
Conditions: compound at 50 μM

Solved entries:
[in] Please give the measured inhibition at 50 µM for this compound: COc1cc(OC)cc(C(=O)NS(=O)(=O)c2ccc(CN(CCSc3ccccc3)Cc3ccc(S(=O)(=O)N=[N+]=[N-])cc3)cc2)c1
[out] > 99%

[in] O=C(NS(=O)(=O)c1ccc(CN(CCSc2ccccc2)Cc2ccc3c(c2)OCO3)cc1)c1ccc(OC(F)(F)F)cc1 ?
[out] > 99%

// next entry
[in] If you can, please state the reported inhibition at 50 µM value of COc1cc2c(cc1OC)C(c1ccccc1)N(Cc1ccc(S(=O)(=O)NC(=O)c3ccc(-c4ccc(F)cc4)cc3)cc1)CC2 (stereo not drawn) .
[out] 58.3%
